Test system: MDA-MB-468
Assay: 13C3 Serine Assay MDA-MB-468 (13C3 serine levels by LC/MS/MS)
Assay type: cell-based
Conditions: Homo sapiens; MDA-MB-468 cells, 13C3 serine levels by LC/MS/MS; read-out: IC50 (13CSERINE)
Below, each of the compounds is paired with its reported IC50 value.

Answered cases to consult:
CC(C)OC(=O)CS(=O)(=O)c1ccc([C@@H](C)NC(=O)c2cc(-c3ccccc3)nn2C)cc1 :: 135 nM
COCCOC(=O)C(C)(C)S(=O)(=O)c1ccc([C@@H](C)NC(=O)c2cc3c(Cl)c(Cl)c(C)nc3n2C)cc1 :: 142 nM

// IC50 lookup, compound = CCC(C(=O)OC)S(=O)(=O)c1ccc([C@@H](C)NC(=O)c2cc3c(Cl)cc(C)cc3n2C)cc1 (stereo partly shown) , result: 166 nM

// IC50 lookup, compound = Cc1nc2c(cc(C(=O)N[C@H](CO)c3ccc(S(=O)(=O)CC(=O)O)cc3)n2C)c(Cl)c1Cl , result: 2000 nM

// IC50 lookup, compound = Cc1cc(Cl)c2cc(C(=O)N[C@H](C)c3ccc(S(=O)(=O)CC(=O)OCC4(C)COC4)cc3)n(C)c2c1 , result: 22.2 nM

// IC50 lookup, compound = COCCC(C(=O)OC)S(=O)(=O)c1ccc([C@@H](C)NC(=O)c2cc3c(Cl)cc(C)cc3n2C)cc1 (stereo partly shown) , result: 831 nM

// IC50 lookup, compound = COC(=O)CS(=O)(=O)c1ccc([C@@H](C)NC(=O)c2cc3c(Cl)cc(C)cc3n2C)cc1 , result: 52.5 nM

// IC50 lookup, compound = CCOC(=O)CS(=O)(=O)c1ccc([C@@H](C)NC(=O)c2cc(-n3ccc4ccccc43)nn2C)cc1 , result: 309 nM

// IC50 lookup, compound = COC(=O)C1(S(=O)(=O)c2ccc([C@@H](C)NC(=O)c3cc4c(Cl)cc(C)cc4n3C)cc2)CCOCC1 , result: 3.7 nM

---

Below, each of the molecules is paired with its reported pIC50 value.
Biological target: PHGDH (Homo sapiens (Human))
Sequence (O43175 2-533 limits assumed): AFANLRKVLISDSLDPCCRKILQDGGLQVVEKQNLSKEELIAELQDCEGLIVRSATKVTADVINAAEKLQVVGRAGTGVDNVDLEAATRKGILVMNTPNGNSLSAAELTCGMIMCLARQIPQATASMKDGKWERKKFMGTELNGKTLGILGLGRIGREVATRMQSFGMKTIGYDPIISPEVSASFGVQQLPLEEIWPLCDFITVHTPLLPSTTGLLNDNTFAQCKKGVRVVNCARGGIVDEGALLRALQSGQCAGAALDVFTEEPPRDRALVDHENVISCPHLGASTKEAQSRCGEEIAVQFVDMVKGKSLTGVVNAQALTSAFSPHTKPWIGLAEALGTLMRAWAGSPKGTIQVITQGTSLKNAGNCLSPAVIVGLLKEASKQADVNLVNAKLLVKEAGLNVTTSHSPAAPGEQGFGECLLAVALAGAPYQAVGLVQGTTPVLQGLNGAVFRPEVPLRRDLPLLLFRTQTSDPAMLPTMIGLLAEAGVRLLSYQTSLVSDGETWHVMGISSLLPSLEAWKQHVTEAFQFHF
Test: 3-Phosphoglycerate Dehydrogenase (PHGDH) Fluorescence Intensity Assay, run at two NAD/3-PG ratios: PHGDH_HIGH_NAD/3-PG (250 μM NAD/500 μM 3-PG) and PHGDH_500_NAD/3-PG (500 μM NAD/500 μM 3-PG)
Format: biochemical
Settings: 250 μM NAD/500 μM 3-PG; read-out: IC50 (PHGDH_HIGH_NAD/3-PG)
pIC50 (log units): -log10 of the concentration in mol/L.

CCOC(=O)CS(=O)(=O)c1ccc([C@@H](C)NC(=O)c2cc3c(Cl)c(Cl)c(C)nc3n2C)cc1 :: 5.96
C[C@@H](NC(=O)c1cc(-c2ccc(F)cc2)nn1C)c1ccc(S(=O)(=O)CC(=O)OCC2COC2)cc1 :: 6.15
C[C@@H](NC(=O)c1cc2cc(Cl)ccc2n1C)c1ccc(S(=O)(=O)[C@@H](C)C(=O)O)cc1 :: 6.62
COCCOC(=O)CS(=O)(=O)c1ccc([C@@H](C)NC(=O)c2cc3cc(C(F)(F)F)ccc3n2C)cc1 :: 5.46

// pIC50 lookup, molecule = CC(C)OC(=O)CS(=O)(=O)c1ccc([C@@H](C)NC(=O)c2cc(-c3ccc(Cl)c(Cl)c3)nn2C)cc1 , result: 4.13

// pIC50 lookup, molecule = CCC(C(=O)OC)S(=O)(=O)c1ccc([C@@H](C)NC(=O)c2cc3c(Cl)cc(C)cc3n2C)cc1 (stereo partly shown) , result: 5.26

// pIC50 lookup, molecule = Cc1cc(Cl)c2cc(C(=O)N[C@H](C)c3ccc(S(=O)(=O)C(C)C(=O)OC(C)(C)C)cc3)n(C)c2c1 (stereo partly shown) , result: 4.61

// pIC50 lookup, molecule = COC(=O)C(C)S(=O)(=O)c1ccc([C@@H](C)NC(=O)c2cc3cc(Cl)ccc3n2C)cc1 (stereo partly shown) , result: 5.52

---

Molecular target: PHGDH (Homo sapiens (Human))
Assay: 3-Phosphoglycerate Dehydrogenase (PHGDH) Fluorescence Intensity Assay, run at two NAD/3-PG ratios: PHGDH_HIGH_NAD/3-PG (250 μM NAD/500 μM 3-PG) and PHGDH_500_NAD/3-PG (500 μM NAD/500 μM 3-PG)
Assay type: biochemical
Details: 250 μM NAD/500 μM 3-PG; read-out: IC50 (PHGDH_HIGH_NAD/3-PG)
Below, each of the molecules is paired with its reported IC50 value.
Entry rule: numbers only, all in nM.

Answered cases to consult:
Cc1cc(Cl)c2cc(C(=O)N[C@H](C)c3ccc(S(=O)(=O)CC(=O)OCCOC(=O)C(C)(C)C)cc3)n(C)c2c1 [Example 09-023] :: 1800
CC(C)OC(=O)CS(=O)(=O)c1ccc([C@@H](C)NC(=O)c2cc3cc(Cl)c(-c4cnn(CCN5CCOCC5)c4)cc3n2C)cc1 [Example 01-026] :: 1350

Field: next molecule
// IC50 lookup, molecule = Cc1nc2c(cc(C(=O)N[C@H](CO)c3ccc(S(=O)(=O)CC(=O)O)cc3)n2C)c(Cl)c1Cl [Example 03-011] , result: 9

---

Target: PHGDH (Homo sapiens (Human))
Experiment: 3-Phosphoglycerate Dehydrogenase (PHGDH) Fluorescence Intensity Assay, run at two NAD/3-PG ratios: PHGDH_HIGH_NAD/3-PG (250 μM NAD/500 μM 3-PG) and PHGDH_500_NAD/3-PG (500 μM NAD/500 μM 3-PG)
Type: biochemical
Conditions: 500 μM NAD/500 μM 3-PG; read-out: IC50 (PHGDH_500_NAD/3-PG)
EXPERIMENTAL_ENDPOINT: log10 IC50 (log10 of the value in nM)
Values below are the log10 of the recorded IC50, with nM as the unit.

Answered cases to consult:
COC(=O)C(C)(C)S(=O)(=O)c1ccc([C@@H](CO)NC(=O)c2cc3c(Cl)c(Cl)c(C)cc3n2C)cc1 :: 3.47
COC(=O)C[S@@+]([O-])c1ccc([C@@H](CO)NC(=O)c2cc3c(Cl)c(Cl)c(C)cc3n2C)cc1 :: 2.46
Cc1cc2c(cc(C(=O)N[C@H](CO)c3ccc(S(=O)(=O)CC(=O)O)cc3)n2C)c(Cl)c1F :: 0.85
Cc1cc(Cl)c2cc(C(=O)N[C@H](CO)c3ccc([S+]([O-])CC(=O)OC(C)C)cc3)n(C)c2c1 (some centres unmarked) :: 3.08

// log10 IC50 lookup, compound = Cc1cc2c(cc(C(=O)N[C@H](CO)c3ccc([S+]([O-])CC(=O)OC(C)C)cc3)n2C)c(Cl)c1Cl (some centres unmarked) , result: 2.90

// log10 IC50 lookup, compound = Cc1cc2c(cc(C(=O)N[C@H](CO)c3ccc(S(=O)(=O)CC(=O)OCC(C)(C)O)cc3)n2C)c(F)c1F , result: 2.39

---

Tested on: MDA-MB-468
Test: 13C3 Serine Assay MDA-MB-468 (13C3 serine levels by LC/MS/MS)
Format: cell-based
Settings: Homo sapiens; MDA-MB-468 cells, 13C3 serine levels by LC/MS/MS; read-out: IC50 (13CSERINE)
Below, each of the molecules is paired with its reported pIC50 value.
pIC50 (log units): -log10 of the concentration in mol/L.

Answered cases to consult:
CCOC(=O)CS(=O)(=O)c1ccc([C@@H](C)NC(=O)c2cc3c(Cl)cc(C)cc3n2C)cc1 :: 7.53
COC(=O)CS(=O)(=O)c1ccc([C@@H](CO)NC(=O)c2cc(-c3ccccc3)nn2C)cc1 :: 6.78
COC(=O)CS(=O)(=O)c1ccc([C@@H](C)NC(=O)c2cc3cc(Cl)c(-c4cnn(CCN5CCOCC5)c4)cc3n2C)cc1 :: 7.47

Field: next molecule
// pIC50 lookup, molecule = CCCC(C(=O)O)S(=O)(=O)c1ccc([C@@H](C)NC(=O)c2cc3c(Cl)cc(C)cc3n2C)cc1 (some centres unmarked) , result: 5.62

---

Molecular target: PHGDH (Homo sapiens (Human))
Experiment: 3-Phosphoglycerate Dehydrogenase (PHGDH) Fluorescence Intensity Assay, run at two NAD/3-PG ratios: PHGDH_HIGH_NAD/3-PG (250 μM NAD/500 μM 3-PG) and PHGDH_500_NAD/3-PG (500 μM NAD/500 μM 3-PG)
Type: biochemical
Conditions: 250 μM NAD/500 μM 3-PG; read-out: IC50 (PHGDH_HIGH_NAD/3-PG)
Below, each of the compounds is paired with its reported pIC50 value.
pIC50 (log units): -log10 of the concentration in mol/L.

Answered cases to consult:
COCCC(C(=O)OC)S(=O)(=O)c1ccc([C@@H](C)NC(=O)c2cc3c(Cl)cc(C)cc3n2C)cc1 (some centres unmarked) [Example 05-005] :: 6.19
COC(=O)C[S@@+]([O-])c1ccc([C@@H](CO)NC(=O)c2cc3c(Cl)c(Cl)c(C)cc3n2C)cc1 [Example 11-002] :: 6.72
CC(C)OC(=O)CS(=O)(=O)c1ccc([C@@H](CO)NC(=O)c2cc3c(Cl)cc(N4CCN(C)CC4)cc3n2C)cc1 [Example 01-040] :: 6.01
COC(=O)CS(=O)(=O)c1ccc([C@@H](C)NC(=O)c2cc(-c3ccccc3)nn2C)cc1 [Example 02-002] :: 5.87
C#Cc1cc(Cl)c2cc(C(=O)NC(C)c3ccc(S(=O)(=O)CC(=O)OC)cc3)n(C)c2c1 (centres unmarked) [Example 01-008] :: 5.77
CCOC(=O)CS(=O)(=O)c1ccc([C@@H](CO)NC(=O)c2cc3c(Cl)cc(C)cc3n2C)cc1 [Example 01-005] :: 6.65
Cc1cc(Cl)c2cc(C(=O)N[C@H](C)c3ccc(S(=O)(=O)CC(=O)OC(C)(C)C)cc3)n(C)c2c1 [Example 01-014] :: 5.37
Cc1cc2c(cc(C(=O)N[C@H](CO)c3ccc(S(=O)(=O)CC(=O)OC(C)C)cc3)n2C)c(Cl)c1Cl [Example 01-021] :: 6.33

// pIC50 lookup, compound = CCOC(=O)CS(=O)(=O)c1ccc([C@@H](CO)NC(=O)c2cc3c(Cl)c(Cl)c(C)cc3n2C)cc1 [Example 01-002] , result: 6.77

// pIC50 lookup, compound = COC(=O)CS(=O)(=O)c1ccc([C@@H](CO)NC(=O)c2cc(-c3ccccc3)nn2C)cc1 [Example 02-007] , result: 5.36

// pIC50 lookup, compound = C#Cc1cc(Cl)c2cc(C(=O)NC(C)c3ccc(S(=O)(=O)CC(=O)O)cc3)n(C)c2c1 (centres unmarked) [Example 03-007] , result: 7.54

// pIC50 lookup, compound = COC(=O)C(C)(C)S(=O)(=O)c1ccc([C@@H](CO)NC(=O)c2cc3c(Cl)c(Cl)c(C)cc3n2C)cc1 [Example 05-017] , result: 5.91

// pIC50 lookup, compound = COC(=O)C1(S(=O)(=O)c2ccc([C@@H](C)NC(=O)c3cc4c(Cl)cc(C)cc4n3C)cc2)CC1 [Example 05-019] , result: 5.27

// pIC50 lookup, compound = Cc1cc2c(cc(C(=O)N[C@H](CO)c3ccc([S+]([O-])CC(=O)OC(C)C)cc3)n2C)c(Cl)c1Cl (some centres unmarked) [Example 13-009] , result: 6.37
